Catalogue of compounds with associated drop in the log10 CFU/mL compared to controls
# Test system: P. aeruginosa PA14
# Run description: Antibacterial photodynamic therapy on biofilm cells
# Format: cell-based, Pseudomonas aeruginosa
# Experimental setup: - irradiation
Measured attribute: drop in the log10 CFU/mL compared to controls (log10 CFU/mL)

Compound	Measured number
C=Cc1c(C)c2cc3nc(c(CC(=O)O)c4[nH]c(cc5nc(cc1[nH]2)C(C)=C5CC)c(C)c4C(=O)O)[C@@H](CCC(=O)NC[C@H]1O[C@H](O[C@@H]2[C@@H](O)[C@H](O[C@H]4O[C@H](CN)[C@@H](O)C[C@H]4N)[C@@H](N)C[C@H]2N)[C@H](O)[C@@H](N)[C@@H]1O)[C@@H]3C [Tobra-Ce6]	0.85
NC[C@H]1O[C@H](O[C@H]2[C@H](O)[C@@H](O[C@H]3O[C@H](CO)[C@@H](O)[C@H](N)[C@H]3O)[C@H](N)C[C@@H]2N)[C@H](N)C[C@@H]1O [Tobramycin, tobramycin]	0.79
NC[C@@H]1O[C@H](O[C@H]2[C@@H](O)[C@H](O[C@@H]3[C@@H](O)[C@H](N)C[C@H](N)[C@H]3O[C@H]3O[C@H](CN)[C@@H](O)[C@H](O)[C@H]3N)O[C@@H]2CO)[C@H](N)[C@@H](O)[C@@H]1O [Neomycin, neomycin]	0.01
C=Cc1c(C)c2cc3nc(c(CC(=O)O)c4[nH]c(cc5nc(cc1[nH]2)C(C)=C5CC)c(C)c4C(=O)O)[C@@H](CCC(=O)O)[C@@H]3C [Ce6, chlorin e6]	0.29

###

Catalogue of compounds with associated drop in the log10 CFU/mL compared to controls
# System: S. aureus USA300
# Run description: Antibacterial photodynamic therapy on biofilm cells
# Assay type: cell-based, Staphylococcus aureus
# Experimental setup: - irradiation
Measured attribute: drop in the log10 CFU/mL compared to controls (log10 CFU/mL)

Compound	Measured number
NC[C@@H]1O[C@H](O[C@H]2[C@@H](O)[C@H](O[C@@H]3[C@@H](O)[C@H](N)C[C@H](N)[C@H]3O[C@H]3O[C@H](CN)[C@@H](O)[C@H](O)[C@H]3N)O[C@@H]2CO)[C@H](N)[C@@H](O)[C@@H]1O [Neomycin, neomycin]	0.16
NC[C@H]1O[C@H](O[C@H]2[C@H](O)[C@@H](O[C@H]3O[C@H](CO)[C@@H](O)[C@H](N)[C@H]3O)[C@H](N)C[C@@H]2N)[C@H](N)C[C@@H]1O [Tobramycin, tobramycin]	0.26
C=Cc1c(C)c2cc3nc(c(CC(=O)O)c4[nH]c(cc5nc(cc1[nH]2)C(C)=C5CC)c(C)c4C(=O)O)[C@@H](CCC(=O)NC[C@H]1O[C@H](O[C@@H]2[C@@H](O)[C@H](O[C@H]4O[C@H](CN)[C@@H](O)C[C@H]4N)[C@@H](N)C[C@H]2N)[C@H](O)[C@@H](N)[C@@H]1O)[C@@H]3C [Tobra-Ce6]	0.28
C=Cc1c(C)c2cc3nc(c(CC(=O)O)c4[nH]c(cc5nc(cc1[nH]2)C(C)=C5CC)c(C)c4C(=O)O)[C@@H](CCC(=O)O)[C@@H]3C [Ce6, chlorin e6]	0.33
